Each recorded value in this set is attributed to patent US8932842B2.

# Assayed system: rat nNOS (Rattus norvegicus, UniProt P29476)
# Construct: made in house; host or cells: E. coli
# Experiment: NOS enzyme assay (hemoglobin capture), nNOS
# Assay type: biochemical
# Test conditions: purified enzyme assay
Reported property: activity/potency for nNOS in words

Entry "Cc1cc(CCc2cccc(CCc3cc(C)nc(N)c3)c2)cc(N)n1" , activity/potency for nNOS in words reported as poor activity

Entry "Cc1cc(N)nc(CCc2cncc(CCc3cc(C)nc(N)c3)c2)c1" , activity/potency for nNOS in words reported as highly potent

Entry "Cc1cc(C)nc(NCc2ccc3cc(CNc4cc(C)cc(C)n4)ccc3c2)c1" , activity/potency for nNOS in words reported as poor activity

Entry "Cc1cc(N)nc(CCc2cccc(CCc3cc(C)nc(N)c3)c2)c1" , activity/potency for nNOS in words reported as highly potent

----------
# Assayed system: murine macrophage iNOS (Mus musculus, UniProt P29477)
# Construct: made in house; host or cells: E. coli
# Experiment: NOS enzyme assay (hemoglobin capture), iNOS
# Type: biochemical
# Test conditions: Table 4, read-out: Ki (μM) iNOS
Please assign False whenever Ki is at or above 20 µM, and True whenever it is below.

Query: Lab note: confirm whether the reported Ki for this compound is below 20 µM, equality not counting. compound: "Cc1cc(N)nc(CCc2cc(CCCN)cc(CCc3cc(C)cc(N)n3)c2)c1"
Reply: False

Query: Lab note: confirm whether the reported Ki for this compound is below 20 µM, equality not counting. compound: "Cc1cc(N)nc(CCc2cc(CCc3cc(C)cc(N)n3)cc(N3CCNCC3)c2)c1"
Reply: False

Query: Lab note: confirm whether the reported Ki for this compound is below 20 µM, equality not counting. compound: "Cc1cc(N)nc(CCc2ccc(CCCN)c(CCc3cc(C)cc(N)n3)c2)c1"
Reply: False

Query: Lab note: confirm whether the reported Ki for this compound is below 20 µM, equality not counting. compound: "Cc1cc(N)nc(CCc2cc(CN)cc(CCc3cc(C)cc(N)n3)c2)c1"
Reply: True

Query: Lab note: confirm whether the reported Ki for this compound is below 20 µM, equality not counting. compound: "Cc1cc(N)nc(CCc2cc(C#N)cc(CCc3cc(C)cc(N)n3)c2)c1"
Reply: True

Query: Lab note: confirm whether the reported Ki for this compound is below 20 µM, equality not counting. compound: "Cc1cc(N)nc(CCc2cc(CCc3cc(C)cc(N)n3)cc(N3CCN(C)CC3)c2)c1"
Reply: False

----------
Assignment: determine reported n/i for the given compounds.
# Assayed system: rat nNOS (Rattus norvegicus, UniProt P29476)
# Construct: made in house; host or cells: E. coli
# Experiment: NOS enzyme assay (hemoglobin capture), nNOS
# Format: biochemical
# Test conditions: ratio of Ki (iNOS) to Ki (nNOS); Tables 1-3
Enter a number only.

Entry "Cc1cc(N)nc(CCc2ccc3ccc(CCc4cc(C)cc(N)n4)cc3c2)c1" , n/i reported as 20.1

Entry "Cc1cc(N)nc(CCc2ccc3cc(CCc4cc(C)cc(N)n4)ccc3c2)c1" , n/i reported as 9.42

Entry "Cc1cc(N)nc(CCc2cccc(CCc3cc(C)nc(N)c3)c2)c1" , n/i reported as 71.8

Entry "Cc1cc(N)nc(CCc2ccc(CCc3cc(C)cc(N)n3)cc2)c1" , n/i reported as 24.8

Entry "Cc1cc(N)nc(CCc2cncc(CCc3cc(C)nc(N)c3)c2)c1" , n/i reported as 19

----------
Assignment: determine reported Selectivity n/i for the given compounds.
# Assayed system: rat nNOS (Rattus norvegicus)
# Construct: made in house; host or cells: E. coli
# Experiment: NOS enzyme assay (hemoglobin capture), nNOS
# Type: biochemical
# Test conditions: Table 4
Enter a number only.

Measured on rat nNOS (Rattus norvegicus), "Cc1cc(N)nc(CCc2cc(CCc3cc(C)cc(N)n3)cc(N3CCNCC3)c2)c1" has a documented Selectivity n/i of 17

Measured on rat nNOS (Rattus norvegicus), "Cc1cc(N)nc(CCc2cc(CCCN)cc(CCc3cc(C)cc(N)n3)c2)c1" has a documented Selectivity n/i of 60

Measured on rat nNOS (Rattus norvegicus), "Cc1cc(N)nc(CCc2ccc(CCCN)c(CCc3cc(C)cc(N)n3)c2)c1" has a documented Selectivity n/i of 199

Measured on rat nNOS (Rattus norvegicus), "Cc1cc(N)nc(CCc2cc(C#N)cc(CCc3cc(C)cc(N)n3)c2)c1" has a documented Selectivity n/i of 239

Measured on rat nNOS (Rattus norvegicus), "Cc1cc(N)nc(CCc2cc(CCc3cc(C)cc(N)n3)cc(N3CCN(C)CC3)c2)c1" has a documented Selectivity n/i of 24

Measured on rat nNOS (Rattus norvegicus), "Cc1cc(N)nc(CCc2cc(CN)cc(CCc3cc(C)cc(N)n3)c2)c1" has a documented Selectivity n/i of 119

----------
# Assayed system: rat nNOS (Rattus norvegicus)
# Construct: made in house; host or cells: E. coli
# Experiment: NOS enzyme assay (hemoglobin capture), nNOS
# Type: biochemical
# Test conditions: rat nNOS; Table 4; read-out: Ki (μM) nNOS
Please assign 0.0 whenever Ki is at or above 0.5 µM, and 1.0 whenever it is below.

Query: Lab note: confirm whether the reported Ki for this molecule is below 0.5 µM, equality not counting. molecule: "Cc1cc(N)nc(CCc2cc(C#N)cc(CCc3cc(C)cc(N)n3)c2)c1"
Reply: 1.0

Query: Lab note: confirm whether the reported Ki for this molecule is below 0.5 µM, equality not counting. molecule: "Cc1cc(N)nc(CCc2cc(CCc3cc(C)cc(N)n3)cc(N3CCN(C)CC3)c2)c1"
Reply: 0.0

Query: Lab note: confirm whether the reported Ki for this molecule is below 0.5 µM, equality not counting. molecule: "Cc1cc(N)nc(CCc2ccc(CCCN)c(CCc3cc(C)cc(N)n3)c2)c1"
Reply: 1.0

Query: Lab note: confirm whether the reported Ki for this molecule is below 0.5 µM, equality not counting. molecule: "Cc1cc(N)nc(CCc2cc(CCCN)cc(CCc3cc(C)cc(N)n3)c2)c1"
Reply: 0.0

Query: Lab note: confirm whether the reported Ki for this molecule is below 0.5 µM, equality not counting. molecule: "Cc1cc(N)nc(CCc2cc(CN)cc(CCc3cc(C)cc(N)n3)c2)c1"
Reply: 1.0

Query: Lab note: confirm whether the reported Ki for this molecule is below 0.5 µM, equality not counting. molecule: "Cc1cc(N)nc(CCc2cc(CCc3cc(C)cc(N)n3)cc(N3CCNCC3)c2)c1"
Reply: 0.0

----------
# Assayed system: bovine eNOS (Bos taurus)
# Construct: made in house; host or cells: E. coli
# Experiment: NOS enzyme assay (hemoglobin capture), eNOS
# Format: biochemical
# Test conditions: Ki calculated from directly measured IC50 values, read-out: Ki eNOS
Reported property: pKi
By convention, pKi is the negative base-10 log of a molar concentration.

Entry "Cc1cc(N)nc(CCc2ccc3ccc(CCc4cc(C)cc(N)n4)cc3c2)c1" , pKi reported as 5.82

Entry "Cc1cc(N)nc(CCc2cccc(CCc3cc(C)nc(N)c3)c2)c1" , pKi reported as 5.38

Entry "Cc1cc(N)nc(CCc2ccc3cc(CCc4cc(C)cc(N)n4)ccc3c2)c1" , pKi reported as 5.76

Entry "Cc1cc(N)nc(CCc2cncc(CCc3cc(C)nc(N)c3)c2)c1" , pKi reported as 4.79

Entry "Cc1cc(N)nc(CCc2ccc(CCc3cc(C)cc(N)n3)cc2)c1" , pKi reported as 5.62

----------
# Assayed system: murine macrophage iNOS (Mus musculus, UniProt P29477)
# Construct: made in house; host or cells: E. coli
# Experiment: NOS enzyme assay (hemoglobin capture), iNOS
# Format: biochemical
# Test conditions: Ki calculated from directly measured IC50 values, read-out: Ki iNOS
Reported property: Ki (µM)
Kindly answer with a numeric value in µM, unit omitted.

Entry "Cc1cc(N)nc(CCc2cncc(CCc3cc(C)nc(N)c3)c2)c1" , Ki reported as 1.91

Entry "Cc1cc(N)nc(CCc2ccc3cc(CCc4cc(C)cc(N)n4)ccc3c2)c1" , Ki reported as 2.27

Entry "Cc1cc(N)nc(CCc2cccc(CCc3cc(C)nc(N)c3)c2)c1" , Ki reported as 2.73

Entry "Cc1cc(N)nc(CCc2ccc(CCc3cc(C)cc(N)n3)cc2)c1" , Ki reported as 2.41

Entry "Cc1cc(N)nc(CCc2ccc3ccc(CCc4cc(C)cc(N)n4)cc3c2)c1" , Ki reported as 2.05

----------
Assignment: determine reported Ki for the given compounds.
# Assayed system: rat nNOS (Rattus norvegicus, UniProt P29476)
# Construct: made in house; host or cells: E. coli
# Experiment: NOS enzyme assay (hemoglobin capture), nNOS
# Format: biochemical
# Test conditions: rat nNOS; Ki calculated from directly measured IC50 values; read-out: Ki nNOS
Kindly answer with a numeric value in µM, unit omitted.

Entry Cc1cc(N)nc(CCc2ccc(CCc3cc(C)cc(N)n3)cc2)c1 [3e] , Ki reported as 0.097

Entry Cc1cc(N)nc(CCc2ccc3ccc(CCc4cc(C)cc(N)n4)cc3c2)c1 [3c] , Ki reported as 0.102

Entry Cc1cc(N)nc(CCc2cncc(CCc3cc(C)nc(N)c3)c2)c1 [3k] , Ki reported as 0.103
